Target: thrombin receptor (PAR-1) (Homo sapiens)
Construct: CHRF membranes (Jones, Biochim. Biophys. Acta 1992, 1136, 272) are thawed from −70° C; endogenous in cells
Sequence (P25116 22-425): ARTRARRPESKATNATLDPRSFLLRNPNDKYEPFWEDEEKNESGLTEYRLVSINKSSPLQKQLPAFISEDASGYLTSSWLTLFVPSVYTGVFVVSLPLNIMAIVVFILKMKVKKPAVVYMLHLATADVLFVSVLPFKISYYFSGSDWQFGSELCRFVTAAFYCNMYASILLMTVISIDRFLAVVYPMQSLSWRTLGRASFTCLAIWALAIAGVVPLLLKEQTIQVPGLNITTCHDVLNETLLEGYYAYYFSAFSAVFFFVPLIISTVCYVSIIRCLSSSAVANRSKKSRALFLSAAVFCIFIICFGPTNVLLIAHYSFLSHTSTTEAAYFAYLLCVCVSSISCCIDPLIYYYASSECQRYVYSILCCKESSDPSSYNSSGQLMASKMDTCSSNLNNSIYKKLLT
Test: In vitro thrombin receptor binding assay (CHRF membranes)
Conditions: tritiated 721-40 radioligand, read-out: Bndg IC50 (Thrombin receptor binding)
Value Type: IC50 (µM)
Write the answer as a number in µM, unit excluded.

Solved entries:
Cc1ccccc1Cn1cc(CN2CCCC2)c2ccc(NC(=O)N[C@@H](Cc3ccc(-c4ccccc4)cc3)C(=O)N[C@@H](CCCNC(=N)N)C(=O)NCc3ccccc3)cc21 [Compound 39]: 21.5
NCC[C@H](NC(=O)[C@H](CC1CCCCC1)NC(=O)Nc1ccc2c(CN3CCCC3)cn(Cc3c(Cl)cccc3Cl)c2c1)C(=O)NCc1ccccc1 [Compound 155]: 13.5

Switching to the query record.
Give recorded IC50. N=C(N)NCCC[C@H](NC(=O)[C@@H](NC(=O)Nc1ccc2c(CN3CCCC3)cn(Cc3c(Cl)cccc3Cl)c2c1)C(c1ccccc1)c1ccccc1)C(=O)NCc1ccccc1 [Compound 56]
11.4
